Just for reference, paper PMC5863483 is where these values come from.

- testTarget: HLA-A*02:01 (Homo sapiens, UniProt P04439, D140Y/D185E/D98H/E176V/E277Q/G131W/G231S/I119V/I121R/I166T/I218V/L300P/L318F/N151K/N90K/P208A/P217A/Q86G/Q94H/R138H/R169H/T345S)
- measurementNotes: HLA-peptide competition binding assay, A*02:01
- assayConditions: post-translationally modified insulin peptide; competition binding assay; a dash indicates IC50 >40,000 nM; read-out: A*02:01 binding (IC50 nM) Modified
*1 amine or outer side, *2 acyl side, *3 side chain or, on linkers, in order; H or OH if unused. Where a SMILES comes first, the peptide text is derived from it. [ ]: non-standard residue; d: D form. γGlu = O=C(O)[C@H](CCC(=O)[*:2])N[*:1]; Cit = NC(=O)NCCC[C@H](N)C(=O)O
Kindly supply the reported IC50 values for the records listed here.

QUERY: Fill in the blank: the reported IC50 of CC(C)C[C@H](NC(=O)[C@H](Cc1c[nH]cn1)NC(=O)CC[C@H](N)C(=O)O)C(=O)N[C@@H](CS)C(=O)NCC(=O)N[C@@H](CO)C(=O)N[C@@H](Cc1c[nH]cn1)C(=O)N[C@@H](CC(C)C)C(=O)N[C@H](C(=O)N[C@@H](CCC(=O)O)C(=O)O)C(C)C [ZHLCGSHLVE] (γGlu-HLCGSHLVE-OH; N-terminus and C-terminus assumed) is ____.
RESULT: > 40000 nM

QUERY: Fill in the blank: the reported IC50 of CC(C)C[C@H](NC(=O)[C@H](C)N)C(=O)N[C@@H](CCC(=O)O)C(=O)NCC(=O)N[C@@H](CO)C(=O)N[C@@H](CC(C)C)C(=O)N[C@@H](CCC(N)=O)C(=O)N[C@@H](CCCCN)C(=O)N[C@@H](CCCNC(N)=O)C(=O)O (H-ALEGSLQK[Cit]-OH; N-terminus and C-terminus assumed) is ____.
RESULT: > 40000 nM
